Assay: NCI Yeast Anticancer Drug Screen. Data for the mec2-1 strain (AID 157)
Conditions: S. cerevisiae mec2-1 strain, at 50.0 µM, active compounds read high
The panel holds about 79,000 compounds, 15% with a hit somewhere; the sample as a whole holds those more often. The source made the active and inactive calls. Cut-off read from the data, not from the text of the source: active = growth inhibition above about 70%; inactive = the rest.
quantityKind: growth inhibition

Input line: Bench note: what growth inhibition did O/N=C1\CCC2CCCCC12 (centres undefined) show?
Output line: 14.5% (inactive)

---
Input line: Query: growth inhibition; subject: CC(=O)Oc1ccc(C(C)(C)C)cc1C
Output line: -10.1% (inactive)

Input line: Form field: reported growth inhibition of CC1(C)CCCC2(C)C(C(=O)O)C3CCC45OC3(CC12)OC(=O)C4C1(C)CCCC(C)(C)C1CC5=O (centres undefined)
Output line: 5.65% (inactive)

Input line: Endpoint output: growth inhibition of Nc1nc(SCc2ccccc2Cl)cc(C(=O)O)n1 . Value?
Output line: 34.7% (inactive)

Input line: Requested field: growth inhibition. Item: CC(=O)/C=C\C1CC2C=CC1C2 (centres undefined)
Output line: -10.2% (inactive)

* * *

Test: NCI Yeast Anticancer Drug Screen. Data for the bub3 strain (AID 167)
Details: S. cerevisiae bub3 mutant strain, at 50.0 µM, active compounds read high
Method: Growth inhibition of yeast strains with defined genetic alterations is measured as a screen for potential anti-cancer activity. Selected strains with alterations in DNA damage repair or cell cycle control were exposed to compounds and growth inhibition was measured relative to vehicle treated controls. The strain used in this assay is bub3
About 79,000 compounds went through this panel and 15% of them were active in at least one assay; those are over-represented in the sample as a whole.
growth inhibition values, listed per item
Supply the numeric figure in %, leaving out any unit text.

Input line: Which growth inhibition value is on record for O=C1c2cccc3cccc(c23)C(=O)N1CCCN(CCO)CCO ?
Output line: -7.6

Input line: // growth inhibition lookup, key: O=C(O)CC(c1ccccc1Cl)C(CC(=O)O)c1ccccc1Cl (stereo not drawn)
Output line: -1.05

Input line: // returns reported growth inhibition for input OCC1OC(OC2CCCCC2)C(O)C(O)C1O (stereo not drawn)
Output line: 24.6

---
Input line: If you can, please state the reported growth inhibition value of O=C(Nc1ccc(Cl)cc1)Nc1nnc2nc(C(C(=O)c3cccs3)c3nc4nnc(NC(=O)Nc5ccc(Cl)cc5)n4[nH]c3=O)c(=O)[nH]n12 .
Output line: 0.05

Input line: I have this molecule here, CO[C@@]12C[C@@H](C)C3=CCC(C)=C3CC1=C(C)C(=O)O2 , and I need its recorded growth inhibition.
Output line: 26.4

Input line: Could you share which growth inhibition value was measured for c1cc2c3c(c1)ccc1ccc4cccc(c4c13)O2 ?
Output line: -3.45

Input line: Which growth inhibition value is on record for O=Cc1cc(N=Nc2ccc(S(=O)(=O)O)cc2)ccc1O ?
Output line: -17.6

Input line: Item CCNC(=S)NCCc1c[nH]c2ccccc12 has what recorded growth inhibition?
Output line: 2.55

Input line: State the recorded growth inhibition for this entry: O=C(CCC(O)c1ccccc1)c1ccccc1 (stereo not drawn)
Output line: 0

Input line: # lookup: growth inhibition of COc1ccc(N=C2c3cc([N+](=O)[O-])ccc3-c3c2cccc3[N+](=O)[O-])cc1
Output line: 3.45

Input line: What value of growth inhibition has been reported for the following molecule? COc1cccc(/C=C2\C(=O)N(C(=O)Cc3ccccc3)N=C2C)c1
Output line: -14.8

Input line: Using the record for O=c1c(SCc2ccc(Cl)cc2)c(N2CCCCC2)cnn1-c1ccccc1 , report its growth inhibition.
Output line: 9.3

Input line: I am curious: what growth inhibition value has been reported for C=CCNC(=O)C[n+]1cccc(C(=O)Nc2ccccc2)c1 ?
Output line: 5.95

meta.source: PubChem BioAssay (NCI)
